Molecular target: MK2 (Homo sapiens)
Sequence (P49137 whole entry): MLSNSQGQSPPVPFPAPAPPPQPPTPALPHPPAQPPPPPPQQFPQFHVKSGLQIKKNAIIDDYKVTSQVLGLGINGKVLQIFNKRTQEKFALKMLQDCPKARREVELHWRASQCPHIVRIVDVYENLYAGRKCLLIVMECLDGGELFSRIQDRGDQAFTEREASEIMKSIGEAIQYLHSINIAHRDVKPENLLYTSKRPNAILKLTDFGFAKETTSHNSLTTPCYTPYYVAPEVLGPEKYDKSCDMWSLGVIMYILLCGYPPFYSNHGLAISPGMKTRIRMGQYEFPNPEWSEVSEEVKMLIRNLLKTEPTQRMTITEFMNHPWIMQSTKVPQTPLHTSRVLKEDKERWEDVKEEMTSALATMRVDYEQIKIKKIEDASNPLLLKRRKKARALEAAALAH
Experiment: MK2 degradation in human SW1353 cells (MSD, 24 h)
Assay type: cell-based
Design: endogenous in cells; host or cells: SW-1353 (ATCC HTB-94)
Settings: read-out: MK2 MSD SW 1353 24 h Dmax %
PARAMETER: Dmax

MOLECULE	TARGET OR SYSTEM	Dmax
Cn1c(=O)n(C2CCC(=O)NC2=O)c2cccc(CCCCCCN3CCC4(CC3)CNC(=O)c3c4[nH]c4c3CCc3cnc(-c5ccccc5F)cc3-4)c21 (centres unmarked)	MK2 (Homo sapiens)	< 50%
C[C@@H]1CNc2c(sc3ccc4nc(N5CCC(N6CCC7(CCN(c8ccc9c(c8)n(C)c(=O)n9C8CCC(=O)NC8=O)CC7)C6)CC5)ccc4c23)C(=O)N1 (some centres unmarked)	MK2 (Homo sapiens)	> 75%
O=C1CCC(N2Cc3cc(N4CCN(CC5CCN(c6ccc(-c7cc(-c8cc9c([nH]8)CCNC9=O)ccn7)c(F)c6)CC5)CC4)ccc3C2=O)C(=O)N1 (centres unmarked)	MK2 (Homo sapiens)	> 75%
C[C@@H]1CNc2c(sc3ccc4nc(N5CCC(CN6CCN(c7ccc8c(c7)n(C)c(=O)n8C7CCC(=O)NC7=O)CC6)CC5)ccc4c23)C(=O)N1 (some centres unmarked)	MK2 (Homo sapiens)	> 75%

Here is another molecule to look at.
[Q] # query: Dmax of entry C[C@@H]1CNc2c(sc3ccc4nc(-c5cccc(N6CCN(CCCCCCCCCCc7ccc8c(c7)n(C)c(=O)n8C7CCC(=O)NC7=O)CC6)c5)ccc4c23)C(=O)N1 (some centres unmarked)
[A] > 75%

====

Target: MK2 (Homo sapiens)
Experiment: MK2 degradation in human THP-1 monocytic cells (MSD, 24 h)
Assay type: cell-based
Parameters: endogenous in cells
Settings: THP-1, THP-1 cells
PARAMETER: Dmax

As a guide, the following entries are already answered.
COMPOUND	TARGET OR SYSTEM	PARAMETER	OBSERVED
C[C@@H]1CNc2c(sc3ccc4nc(-c5ccc(N6CCN(CC7CCN(c8ccc9c(c8)n(C)c(=O)n9C8CCC(=O)NC8=O)CC7)CC6)cc5)ccc4c23)C(=O)N1 (some centres unmarked)	MK2 (Homo sapiens)	Dmax	> 75%
C[C@@H]1CNc2c(sc3ccc4nc(-c5ccc(N6CCC(CN7CCN(c8ccc9c(c8)n(C)c(=O)n9C8CCC(=O)NC8=O)CC7)CC6)cc5F)ccc4c23)C(=O)N1 (some centres unmarked)	MK2 (Homo sapiens)	Dmax	> 75%
C[C@@H]1CNc2c(sc3ccc4nc(-c5ccc(N6CCN(C[C@H]7C[C@H](c8ccc9c(c8)n(C)c(=O)n9C8CCC(=O)NC8=O)C7)CC6)cc5)ccc4c23)C(=O)N1 (some centres unmarked)	MK2 (Homo sapiens)	Dmax	> 75%
C[C@@H]1CNc2c(sc3ccc4nc(N5CCN(C6CC7(CCN(c8ccc9c(c8)n(C)c(=O)n9C8CCC(=O)NC8=O)CC7)C6)CC5)ccc4c23)C(=O)N1 (some centres unmarked)	MK2 (Homo sapiens)	Dmax	> 75%
Cn1c(=O)n(C2CCC(=O)NC2=O)c2cccc(N3CCC(CN4CCN(c5ccc(-c6cc(-c7cc8c([nH]7)CCNC8=O)ccn6)cc5)CC4)CC3)c21 (centres unmarked)	MK2 (Homo sapiens)	Dmax	> 75%

Field: Dmax. Fill in for each record below.
1. Cn1c(=O)n(C2CCC(=O)NC2=O)c2cccc(CCCCCCN3CCC4(CC3)CNC(=O)c3c4[nH]c4c3CCc3cnc(-c5ccccc5F)cc3-4)c21 (centres unmarked)
2. Cn1c(=O)n(C2CCC(=O)NC2=O)c2ccc(CCCN3CCN(c4ccc(-c5cc(-c6cc7c([nH]6)C6(CC6)CNC7=O)ccn5)cc4)CC3)cc21 (centres unmarked)
3. C[C@@H]1CNc2c(sc3ccc4nc(-c5cccc(C6CCN(CCN7CCC(CCc8cccc9c8n(C)c(=O)n9C8CCC(=O)NC8=O)CC7)CC6)c5)ccc4c23)C(=O)N1 (some centres unmarked)
4. Cn1c(=O)n(C2CCC(=O)NC2=O)c2cccc(CCCN3CCN(c4ccc(F)c(-c5cc(-c6cc7c([nH]6)CCNC7=O)ccn5)c4)CC3)c21 (centres unmarked)

[A]
< 50%
50 to 75%
> 75%
< 50%

Field: Dmax. Fill in for each record below.
1. Cn1c(=O)n(C2CCC(=O)NC2=O)c2ccc(N3CC(CN4CCN(c5ccc(-c6cc(-c7cc8c([nH]7)C7(CCCC7)CNC8=O)ccn6)c(F)c5)CC4)C3)cc21 (centres unmarked)
2. C[C@@H]1CNc2c(sc3ccc4nc(-c5cncc(C6CCN(CC7CCN(c8ccc9c(c8)n(C)c(=O)n9C8CCC(=O)NC8=O)CC7)CC6)c5)ccc4c23)C(=O)N1 (some centres unmarked)

[A]
> 75%
> 75%
